Data provenance is paper PMC11440508.

Molecular target: T1, human neurotensin receptor type 1 (hNTS1R), endogenous in HT-29 colon carcinoma cells (human (endogenous in HT-29), UniProt P30989 1-418)
T1 construct: human neurotensin receptor type 1 (hNTS1R), endogenously expressed in HT-29 colon carcinoma cells; also called HT-29 cells; source: endogenous, intact HT-29 colon carcinoma cells
T1 sequence (P30989 whole entry): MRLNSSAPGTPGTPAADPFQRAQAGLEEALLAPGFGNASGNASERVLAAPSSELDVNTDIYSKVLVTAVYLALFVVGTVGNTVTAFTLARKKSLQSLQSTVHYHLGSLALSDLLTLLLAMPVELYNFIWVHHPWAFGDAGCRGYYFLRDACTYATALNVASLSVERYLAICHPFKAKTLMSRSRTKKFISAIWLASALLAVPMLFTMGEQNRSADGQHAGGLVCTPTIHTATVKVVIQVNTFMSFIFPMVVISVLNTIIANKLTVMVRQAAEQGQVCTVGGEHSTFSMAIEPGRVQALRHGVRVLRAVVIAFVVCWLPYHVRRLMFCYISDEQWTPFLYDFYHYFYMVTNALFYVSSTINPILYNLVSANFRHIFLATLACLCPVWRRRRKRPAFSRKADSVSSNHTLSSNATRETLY
Experiment: radioligand binding; competition with [^3H]UR-MK300 at intact hNTS1R-expressing HT-29 cells, 23 ± 1 °C; pIC50 converted to pKi (Cheng–Prusoff)
Conditions: one partner purified
pKi: −log10 of the molar value. Non-standard residues stand in square brackets, D forms with d. No end group written: not given here. *: point of attachment. Gly(piperidin-4-yl) = N[C@H](C(=O)O)C1CCNCC1; Pent4ynoyl = C#CCCC(=O)*; Pra = C#CC[C@H](N)C(=O)O
value-type: pKi

binder: Pent4ynoyl-[dK]PRRPYIL (neurotensin NT(6–13) with D-Lys at position 6, printed in three-letter code; numbers count on: the mature neurotensin; also called peptide 8; source: synthetic peptide (SPPS, preparative HPLC)) [N^α-(Pent-4-ynoyl)-D-Lys-Pro-Arg-Arg-Pro-Tyr-Ile-Leu (8)]
assay-result: 9.07
--
binder: {4‑(N-propanoyl)aminobutanoyl}-X[Gly(piperidin-4-yl)]PRRPYIL (not fully specified (residue 1); printed as *N*^α^-[(4-(*N*-Propanoyl)aminobutanoyl)]-2-(1-(1-*N*-((1-carboxylato-2-(6-(dimethylamino)-3-(dimethyliminio)-3*H*-xanthen-9-yl)phen-5-yl)1-oxomethyl)aminoprop-3-yl-1*H*-1,2,3-triazol-4-yl)methyl)-Gly-2-(piperidin-4-yl)-Gly-Pro-Arg-Arg-Pro-Tyr-Ile-Leu) [5-TAMRA-labeled, propionylated NT(6–13) derivative 16]
assay-result: 9.11
--
binder: XPRRPYIL (N-terminus: 5-TAMRA attached through a 3-(1H-1,2,3-triazol-4-yl)propanoyl group; position 6 (X) = 2-(piperidin-4-yl)-Gly (pipGly); Arg8 = N^ω-[(4-(N-propanoyl)aminobutyl)aminocarbonyl]Arg) [5-TAMRA-labeled, propionylated NT(6–13) derivative 13 (UR-FE051)]
assay-result: 8.96
--
binder: {4‑aminobutanoyl}-[Pra][Gly(piperidin-4-yl)]PRRPYIL [N^α-(4-Aminobutanoyl)-2-(prop-2-ynyl)-Gly-2-(piperidin-4-yl)-Gly-Pro-Arg-Arg-Pro-Tyr-Ile-Leu (9)]
assay-result: 9.48
